Taken from patent US20120094909A1.

target: T1, human PCSK9 (proprotein convertase subtilisin kexin type 9) (human, UniProt Q8NBP7 31-692); test: SPR (ProteOn), 25 C
T1 construct: immobilized directly (ProteOn), biotinylated (Octet) or in solution, according to the assay; also called hPCSK9; PCSK9-AF647 (labelled form)
T1 sequence (Q8NBP7 31-692 limits assumed): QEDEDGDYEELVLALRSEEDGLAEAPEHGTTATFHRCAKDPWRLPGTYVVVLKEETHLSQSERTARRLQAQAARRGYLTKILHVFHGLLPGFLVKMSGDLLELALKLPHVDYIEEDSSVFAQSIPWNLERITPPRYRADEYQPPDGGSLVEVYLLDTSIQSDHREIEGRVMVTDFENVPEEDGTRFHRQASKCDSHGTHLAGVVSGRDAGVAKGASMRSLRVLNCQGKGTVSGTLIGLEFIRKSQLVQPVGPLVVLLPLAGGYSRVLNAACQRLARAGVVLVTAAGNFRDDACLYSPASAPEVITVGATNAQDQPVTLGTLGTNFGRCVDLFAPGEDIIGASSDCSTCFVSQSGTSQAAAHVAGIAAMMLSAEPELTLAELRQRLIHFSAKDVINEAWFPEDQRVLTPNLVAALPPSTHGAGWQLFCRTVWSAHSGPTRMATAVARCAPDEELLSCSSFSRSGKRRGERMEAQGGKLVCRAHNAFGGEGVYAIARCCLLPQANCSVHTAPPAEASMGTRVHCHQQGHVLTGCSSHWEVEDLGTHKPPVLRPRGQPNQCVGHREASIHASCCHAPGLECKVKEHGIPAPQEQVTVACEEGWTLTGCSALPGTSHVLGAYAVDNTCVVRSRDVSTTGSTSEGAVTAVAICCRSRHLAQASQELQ
A collection of binders and their measured pKd
API: returns pKd as number; meaning -log10 of concentration in mol/L.

Would you please look over these solved cases?
binder	pKd
2012A04 (designed binder) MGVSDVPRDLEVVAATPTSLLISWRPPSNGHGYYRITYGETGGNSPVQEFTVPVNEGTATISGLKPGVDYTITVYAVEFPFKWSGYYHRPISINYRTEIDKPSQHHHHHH	9.60
1459D05 (designed binder, also called ATI000891; ATI-891) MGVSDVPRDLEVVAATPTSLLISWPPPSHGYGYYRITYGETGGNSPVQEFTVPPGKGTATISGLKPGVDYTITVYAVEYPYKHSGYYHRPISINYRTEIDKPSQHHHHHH	8.80
1922G04 (designed binder, also called ATI001057; ATI-1057) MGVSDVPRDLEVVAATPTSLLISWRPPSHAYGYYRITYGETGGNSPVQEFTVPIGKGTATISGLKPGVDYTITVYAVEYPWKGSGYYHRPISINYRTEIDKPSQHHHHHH	10.05

Prompt line: Query: pKd; subject: 2013E01 (designed binder, unmodified (not PEGylated) Adnectin; also called ATI001081) MGVSDVPRDLEVVAATPTSLLISWVPPSDDYGYYRITYGETGGNSPVQEFTVPIGKGTATISGLKPGVDYTITVYAVEFPWPHAGYYHRPISINYRTEIDKPSQHHHHHH
Response line: 9.54

Prompt line: Try this binder too: 1923B02 (designed binder) MGVSDVPRDLEVVAATPTSLLISWTPPPKGYGYYRITYGETGGNSPVQEFTVPVGEGTATISGLKPGVDYTITVYAVEYTYNGAGYYHRPISINYRTEIDKPSQHHHHHH
Response line: 9.76

Prompt line: # repeat for 2011H05 (designed binder, also called ATI001091) MGVSDVPRDLEVVAATPTSLLISWVPSSHAYGYYRITYGETGGNSPVQEFTVPVGVGTATISGLKPGVDYTITVYAVEYAFEGAGYYHRPISINYRTEIDKPSQHHHHHH
Response line: 10.10
